- assayed target: human vitamin D binding protein (hDBP) (Homo sapiens)
- Sequence (P02774 17-474): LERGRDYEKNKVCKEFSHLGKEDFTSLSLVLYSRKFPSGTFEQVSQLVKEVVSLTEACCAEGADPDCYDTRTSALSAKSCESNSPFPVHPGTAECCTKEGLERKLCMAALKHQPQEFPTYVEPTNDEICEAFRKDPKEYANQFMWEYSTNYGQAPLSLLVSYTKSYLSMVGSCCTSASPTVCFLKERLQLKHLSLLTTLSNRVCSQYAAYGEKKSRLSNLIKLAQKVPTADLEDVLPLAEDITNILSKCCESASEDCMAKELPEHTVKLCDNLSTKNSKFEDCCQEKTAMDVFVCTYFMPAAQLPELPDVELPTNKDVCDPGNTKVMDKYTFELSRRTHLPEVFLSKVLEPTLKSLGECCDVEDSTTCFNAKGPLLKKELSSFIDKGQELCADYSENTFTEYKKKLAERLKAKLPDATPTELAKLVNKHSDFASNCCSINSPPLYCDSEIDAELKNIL
- run description: Affinity for human vitamin D binding protein
- applied conditions: hDBP 0.18 μM, 4° C. 3 hours; 1,25(OH)2D3 = 100
- Experimental: Binding of 1α,25(OH)2D3 analogues to hDBP was performed at 4° C. […] Phase separation was then obtained by the addition of 0.5 ml of cold dextran-coated charcoal.
attribute measured: DBP (relative affinity) (%)

[
  {
    "structure string": "C[C@H](CC#CC(O)(C(F)(F)F)C(F)(F)F)[C@@]1(C)CC[C@@H](/C=C/C=C2C[C@@H](O)C[C@H](O)C2)C1(C)C",
    "assayed target": "human vitamin D binding protein (hDBP) (Homo sapiens)",
    "DBP (relative affinity) / %": 7
  }
]

a. C=C1/C(=C\C=C\[C@@H]2CC[C@](C)([C@H](C)CC#CC(O)(C(F)(F)F)C(F)(F)F)C2(C)C)C[C@@H](O)C[C@@H]1O
b. C=C1/C(=C\C=C\[C@@H]2CC[C@](C)([C@@H](C)CC[C@H](O)C(C)C)C2(C)C)C[C@@H](O)C[C@@H]1O
input: Of the two listed items, which has the higher DBP (relative affinity)? First: a Second: b Write down the label of the entry you select.
output: b
(b: 4%, a: 0%)

I. C=C1/C(=C\C=C\[C@@H]2CC[C@](C)([C@H](C)CC#CC(C)(C)O)C2(C)C)C[C@@H](O)C[C@@H]1O
II. C=C1/C(=C\C=C\[C@@H]2CC[C@](C)([C@H](C)CCCC(O)(C(F)(F)F)C(F)(F)F)C2(C)C)C[C@@H](O)C[C@@H]1O
input: Given the two records I and II , choose the one whose DBP (relative affinity) value is lower. Write down the label of the entry you select.
output: I
(I: 0%, II: 40%)

====

- System: NMRI mice
- run description: In vivo activity: serum and femur calcium after 7 daily i.p. injections
- applied conditions: dose 0.2 μg/kg/d i.p., 7 days; * in cell = P < 0.05
attribute measured: femur calcium vs. control (%)

These solved cases illustrate the format of a correct answer.
[
  {
    "molecule": "C[C@H](CC#CC(O)(C(F)(F)F)C(F)(F)F)[C@@]1(C)CC[C@@H](/C=C/C=C2C[C@@H](O)C[C@H](O)C2)C1(C)C",
    "femur calcium vs. control (%)": "112* %"
  },
  {
    "molecule": "C=C1/C(=C\\C=C\\[C@@H]2CC[C@](C)([C@@H](C)CC[C@H](O)C(C)C)C2(C)C)C[C@@H](O)C[C@@H]1O",
    "femur calcium vs. control (%)": "112* %"
  },
  {
    "molecule": "C=C1/C(=C\\C=C\\[C@@H]2CC[C@](C)([C@@H](C)CC#CC(O)(C(F)(F)F)C(F)(F)F)C2(C)C)C[C@@H](O)C[C@@H]1O",
    "femur calcium vs. control (%)": "117* %"
  }
]

input: I would be grateful if you could share the reported femur calcium vs. control (%) for C=C1/C(=C\C=C2/CCC[C@]3(C)[C@@H]([C@H](C)CCCC(C)(C)O)CC[C@@H]23)C[C@@H](O)C[C@@H]1O [1,25(OH)2D3, Calcitriol, reference compound] .
output: 97%
